The reported measurements were obtained from patent US20250296960A1.

Assignment: determine reported Ratio vs. GLP-1R for the given binders.
targetEntity: human glucagon receptor (GCGR), expressed on CHO-K1 cells (human, UniProt P47871 26-477)
Sequence (P47871 26-477): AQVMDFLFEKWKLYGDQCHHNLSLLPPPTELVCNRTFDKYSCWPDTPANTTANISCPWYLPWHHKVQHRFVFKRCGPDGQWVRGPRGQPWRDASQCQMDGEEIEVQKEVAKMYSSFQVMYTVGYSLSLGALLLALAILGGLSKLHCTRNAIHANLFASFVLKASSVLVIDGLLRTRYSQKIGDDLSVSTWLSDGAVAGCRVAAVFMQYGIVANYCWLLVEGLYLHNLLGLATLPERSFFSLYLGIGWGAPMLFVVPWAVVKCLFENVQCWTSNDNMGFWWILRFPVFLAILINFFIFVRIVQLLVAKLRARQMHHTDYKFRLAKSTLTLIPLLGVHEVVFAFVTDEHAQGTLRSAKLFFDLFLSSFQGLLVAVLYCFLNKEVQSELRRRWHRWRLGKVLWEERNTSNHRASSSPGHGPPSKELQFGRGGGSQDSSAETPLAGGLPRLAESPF
protocolDetails: cell-based or functional assay
Numbered stars: 1 amine (or outer) side, 2 acyl side, 3 side chain; on linkers, the order of the positions; unused ones are H or OH. Square brackets hold non-standard residues; d marks the D form. Primed or numbered codes have the meaning given here. Side chains are listed from the residue outwards. Ends that are not written are not given here. * marks the point of attachment. C18 = C18 fatty acid (C16-C22 fatty acids conjugated via γGlu/8-amino-3,6-dioxaoctanoic acid spacers); C18″ = C18 fatty acid moiety (of 2OEG-γGlu-C18, K*); γGlu = O=C(O)[C@H](CCC(=O)[*:2])N[*:1]; αMeR = C[C@](N)(CCCNC(=N)N)C(=O)O; AEEA = NCCOCCOCC(=O)O; Aib = CC(C)(N)C(=O)O

Some solved entries appear below for comparison.
Y[Aib]QGTFTSDYSK([AEEA-AEEA-γGlu-C18″])LLDYMMQRDFVQWLLEGGPSSGAPPPS-NH2 [Peptide No. 5-3D] | 26
Y[Aib]QGTFTSDYSK([AEEA-AEEA-γGlu-C18″])LLDYMMQQDFVQWLLEGGPSSGAPPPS-NH2 [SEQ ID NO. 100] | 56
Y[Aib]QGTFTSDYSK([AEEA-AEEA-γGlu-C18″])LLDYMMQ[αMeR]DFVQWLLEGGPSSGAPPPS-NH2 [SEQ ID NO. 101] | 12

Lab note: next binder to report on.
Data request: Using the record for Y[Aib]QGTFTSDYSK([AEEA-AEEA-γGlu-C18])LLDYMMQHDFVQWLLEGGPSSGAPPPS-NH2 [SEQ ID NO. 99] , state its measured Ratio vs. GLP-1R.
Data returned: 80
